Data credit: ChEMBL document CHEMBL5154934

CC50 listing for selected compounds.
- assay_protocol: Cytotoxicity against african green monkey Vero E6 cells
- Assay type: toxicity, cell-based, Vero C1008
- test_conditions: chlorocebus sabaeus

Req: Find the recorded CC50 belonging to CC(C)C[C@H](NC(=O)OC1CC2(CCN(C(=O)C(C)C)CC2)C1)C(=O)N[C@H](C=O)C[C@H]1CCNC1=O and report it.
Resp: > 100 µM

Req: Return reported CC50; argument: CC(C)C[C@H](NC(=O)OC1CC2(CCN(C(=O)Cc3ccccc3)CC2)C1)C(=O)N[C@H](C=O)C[C@H]1CCNC1=O
Resp: > 100 µM

New cases:
Req: // query CC50 value for entry CC(C)C[C@H](NC(=O)OC1CC2(CCN(C(=O)C(C)C)CC2)C1)C(=O)N[C@@H](C[C@H]1CCNC1=O)C(=O)C(O)S(=O)(=O)O (some centres not stated)
Resp: > 100 µM

Req: Bench note: what CC50 did [2H]C([2H])(OC(=O)N[C@@H](CC(C)C)C(=O)N[C@@H](C[C@H]1CCNC1=O)C(=O)C(O)S(=O)(=O)[O-])C1CN(C(=O)OC(C)(C)C)C1.[Na+] (some centres not stated) show?
Resp: > 100 µM

Req: Recorded CC50 of CC(C)C[C@H](NC(=O)OC1CC2(CCN(C(=O)OC(C)(C)C)C2)C1)C(=O)N[C@H](C=O)C[C@H]1CCNC1=O (some centres not stated) , please.
Resp: > 100 µM

Req: Returns the measured CC50 for the input compound. Input: CC(C)C[C@H](NC(=O)OC1CC2(CCN(C(=O)OC(C)(C)C)C2)C1)C(=O)N[C@@H](C[C@H]1CCNC1=O)C(=O)C(O)S(=O)(=O)O (some centres not stated)
Resp: > 100 µM

Req: May I ask what CC50 has been recorded for CC(C)C[C@H](NC(=O)OC1CC2(C1)CN(C(=O)OC(C)(C)C)C2)C(=O)N[C@@H](C[C@H]1CCNC1=O)C(=O)C(O)S(=O)(=O)O (some centres not stated) ?
Resp: > 100 µM

Req: What value of CC50 has been reported for the following compound? CC(C)C[C@H](NC(=O)OCC1CN(S(C)(=O)=O)C1)C(=O)N[C@H](C=O)C[C@H]1CCNC1=O
Resp: > 100 µM

Req: What does the record list as CC50 for CC(C)C[C@H](NC(=O)OCC1CN(C(=O)OC(C)(C)C)C1)C(=O)N[C@@H](C[C@H]1CCNC1=O)C(=O)C(O)S(=O)(=O)O (some centres not stated) ?
Resp: > 100 µM

Req: Name the recorded CC50 for CC(C)C[C@H](NC(=O)OC1CC2(C1)CN(C(=O)C(C)C)C2)C(=O)N[C@@H](C[C@H]1CCNC1=O)C(=O)C(O)S(=O)(=O)O (some centres not stated) .
Resp: > 100 µM

Req: What value of CC50 has been recorded for this entry: CC(C)C[C@H](NC(=O)OC1CCC2(C1)CN(C(=O)OC(C)(C)C)C2)C(=O)N[C@@H](C[C@H]1CCNC1=O)C(=O)C(O)S(=O)(=O)O (some centres not stated)
Resp: > 100 µM

Req: Please give the measured CC50 for this compound: CC(C)C[C@H](NC(=O)OC1CC2(C1)CN(S(C)(=O)=O)C2)C(=O)N[C@@H](C[C@H]1CCNC1=O)C(=O)C(O)S(=O)(=O)O (some centres not stated)
Resp: > 100 µM

Req: Query (compound): CC(C)C[C@H](NC(=O)OC1CC2(C1)CN(C(=O)C(C)C)C2)C(=O)N[C@H](C=O)C[C@H]1CCNC1=O ; field requested: CC50
Resp: > 100 µM

Req: Look up CC50: CC(C)C[C@H](NC(=O)OC1CCC2(C1)CN(C(=O)OC(C)(C)C)C2)C(=O)N[C@H](C=O)C[C@H]1CCNC1=O (some centres not stated)
Resp: > 100 µM

Req: What value of CC50 has been recorded for this entry: CC(C)C[C@H](NC(=O)OC1CN(C(=O)OC(C)(C)C)C1)C(=O)N[C@@H](C[C@H]1CCNC1=O)C(=O)C(O)S(=O)(=O)O (some centres not stated)
Resp: > 100 µM

Req: # input compound: CC(C)C[C@H](NC(=O)OC1CC2(CCN(C(=O)OC(C)(C)C)CC2)C1)C(=O)N[C@H](C=O)C[C@H]1CCNC1=O ; wanted: its CC50
Resp: > 100 µM

Req: Could you tell me which CC50 is on file for CC(C)C[C@H](NC(=O)OC1CC2(CCN(C(=O)OC(C)(C)C)CC2)C1)C(=O)N[C@@H](C[C@H]1CCNC1=O)C(=O)C(O)S(=O)(=O)O (some centres not stated) ?
Resp: > 100 µM

Req: CC50 for CC(C)C[C@H](NC(=O)OC1(C)CN(C(=O)OC(C)(C)C)C1)C(=O)N[C@H](C=O)C[C@H]1CCNC1=O ?
Resp: > 100 µM

Req: CC50 for CC(C)C[C@H](NC(=O)OCC1CN(C(=O)Cc2ccccc2)C1)C(=O)N[C@H](C=O)C[C@H]1CCNC1=O ?
Resp: > 100 µM

Req: Please look up its CC50: CC(C)C[C@H](NC(=O)OC1CC2(C1)CN(C(=O)Cc1ccccc1)C2)C(=O)N[C@H](C=O)C[C@H]1CCNC1=O
Resp: > 100 µM
